- measured target: T1, recombinant human FGF23 (R179Q) (human, UniProt Q9GZV9 25-251)
- T1 construct: also called rhFGF23(R179Q); hFGF23(R179Q)
- T1 sequence (looked up): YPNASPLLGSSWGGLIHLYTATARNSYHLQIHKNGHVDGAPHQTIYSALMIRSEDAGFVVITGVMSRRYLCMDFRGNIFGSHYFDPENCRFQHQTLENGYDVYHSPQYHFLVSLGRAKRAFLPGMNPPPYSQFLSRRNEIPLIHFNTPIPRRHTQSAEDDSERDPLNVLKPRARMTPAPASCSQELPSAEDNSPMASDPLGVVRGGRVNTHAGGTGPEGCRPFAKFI
- protocol notes: SPR, antibody captured on hIgG chip, rhFGF23(R179Q) analyte
Listed below: Kd values for each entry.
recorded metric: Kd (pM)

INSERT INTO results (binder, unit_info, experimental_value) VALUES
  ('UGX204 (antibody, human IgG1, kappa, V domains shown, also called HC:S59E, LC:S52E; S59E/S52E) VH: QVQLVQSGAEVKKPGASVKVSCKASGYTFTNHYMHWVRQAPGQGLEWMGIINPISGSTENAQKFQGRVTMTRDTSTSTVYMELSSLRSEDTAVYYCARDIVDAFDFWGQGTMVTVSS VL: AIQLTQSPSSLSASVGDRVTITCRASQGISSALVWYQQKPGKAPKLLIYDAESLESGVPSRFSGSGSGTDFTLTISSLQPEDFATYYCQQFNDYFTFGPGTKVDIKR', 'pM', 13.3),
  ('UGX206 (antibody, human IgG1, kappa, V domains shown, also called HC:S59E, LC:Y94E; S59E/Y94E) VH: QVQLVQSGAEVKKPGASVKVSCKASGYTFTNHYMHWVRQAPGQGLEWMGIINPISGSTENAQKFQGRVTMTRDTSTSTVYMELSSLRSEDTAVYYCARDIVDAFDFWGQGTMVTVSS VL: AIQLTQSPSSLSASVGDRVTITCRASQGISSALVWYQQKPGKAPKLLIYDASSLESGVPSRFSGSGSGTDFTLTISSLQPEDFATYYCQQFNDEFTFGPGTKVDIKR', 'pM', 7.87),
  ('UGX157 (antibody, human IgG1, kappa, V domains shown, also called HC:I54Y; I54Y) VH: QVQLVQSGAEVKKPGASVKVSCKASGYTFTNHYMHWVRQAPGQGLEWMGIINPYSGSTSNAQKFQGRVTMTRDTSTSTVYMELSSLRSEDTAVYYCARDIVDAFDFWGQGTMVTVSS VL: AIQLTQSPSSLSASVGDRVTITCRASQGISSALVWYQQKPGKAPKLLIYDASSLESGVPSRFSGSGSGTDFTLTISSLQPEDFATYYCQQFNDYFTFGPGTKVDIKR', 'pM', 7.58),
  ('UGX175 (antibody, human IgG1, kappa, V domains shown, also called HC:A103S; A103S) VH: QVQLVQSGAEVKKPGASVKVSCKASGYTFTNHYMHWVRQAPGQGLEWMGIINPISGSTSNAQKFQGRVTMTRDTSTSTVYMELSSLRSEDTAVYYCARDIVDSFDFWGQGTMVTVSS VL: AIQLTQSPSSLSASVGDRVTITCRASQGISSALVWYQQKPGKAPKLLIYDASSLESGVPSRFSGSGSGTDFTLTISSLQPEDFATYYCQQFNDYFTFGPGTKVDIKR', 'pM', 7.72);
